Collected from the literature: pKi of various compounds toward 5-hydroxytryptamine receptor 6 (Homo sapiens).
pKi: −log10 of the molar value.

CCCc1ccc(S(=O)(=O)Nc2ccc([C@@H]3CCN(CCC)C3)cc2)s1    7.30 to 8.00

GET /values?item= `O=S(=O)(c1cccc2ccccc12)c1n[nH]c2c(OCCN3CCCC3)cccc12` &system= 5-hydroxytryptamine receptor 6 (Homo sapiens) returns pKi: 8.00 to 11.00

GET /values?item= `COc1ccc(NS(=O)(=O)c2ccc3ccccc3c2)cc1N1CCNCC1` &system= 5-hydroxytryptamine receptor 6 (Homo sapiens) returns pKi: > 8.00

GET /values?item= `CN(C)CCOc1cccc2c(S(=O)(=O)c3cccc4ccccc34)nn(C)c12` &system= 5-hydroxytryptamine receptor 6 (Homo sapiens) returns pKi: < 7.35

GET /values?item= O=C(O)/C=C/C(=O)N1N=C(c2c(-c3ccc(Br)cc3)c3ccccc3[nH]c2=O)CC1c1ccc(Cl)cc1 (racemic) &system= 5-hydroxytryptamine receptor 6 (Homo sapiens) returns pKi: < 5.00

GET /values?item= `O=S(=O)(c1ccc2c(c1)CNCC2)n1c2ccccc2c2ccccc21` &system= 5-hydroxytryptamine receptor 6 (Homo sapiens) returns pKi: 8.20 to 8.90

GET /values?item= `O=S(=O)(c1ccc2c(c1)CNCC2)n1ccc2ccc(C(F)(F)F)cc21` &system= 5-hydroxytryptamine receptor 6 (Homo sapiens) returns pKi: 8.20 to 8.90

GET /values?item= `CN(C)CCOCc1ccc2[nH]nc(S(=O)(=O)c3cccc4ccccc34)c2c1` &system= 5-hydroxytryptamine receptor 6 (Homo sapiens) returns pKi: 8.00 to 11.00

GET /values?item= `O=S(=O)(c1cccc(Cl)c1)c1n[nH]c2ccc(NC3CCNCC3)cc12` &system= 5-hydroxytryptamine receptor 6 (Homo sapiens) returns pKi: 8.00 to 11.00

GET /values?item= `CN(C)CCN(C)Cc1ccc2[nH]nc(S(=O)(=O)c3cccc4ccccc34)c2c1` &system= 5-hydroxytryptamine receptor 6 (Homo sapiens) returns pKi: 7.60 to 7.96

GET /values?item= `CCCN1CC(c2ccc(NS(=O)(=O)c3ccc(F)c(F)c3)cc2)C1` &system= 5-hydroxytryptamine receptor 6 (Homo sapiens) returns pKi: 6.82 to 7.30

###

Collected from the literature: Ki of various compounds toward 5-hydroxytryptamine receptor 6 (Homo sapiens, UniProt P50406).

In the examples that follow, each entry is paired with its recorded Ki.
CCCN1CC(c2ccc(NS(=O)(=O)c3cccc(F)c3)cc2)C1    10 to 50 nM
NCCOc1ccc2[nH]nc(S(=O)(=O)c3ccccc3)c2c1    36 to 45 nM
CCN(CC)CCOc1cccc2c(S(=O)(=O)c3ccccc3)nn(C)c12    > 45 nM
O=S(=O)(Nc1cccc(C2CNC2)c1)c1cccc(Cl)c1    < 1 nM
O=S(=O)(c1ccc2c(c1)CNCC2)n1c2c(c3ccccc31)CCCC2    1.26 to 6.31 nM

Read the next record carefully.
GET /values?item= `NCCCOc1ccc2[nH]nc(S(=O)(=O)c3cccc4ccccc34)c2c1` &system= 5-hydroxytryptamine receptor 6 (Homo sapiens, UniProt P50406) returns Ki: 0.01 to 10 nM
